ASSAY_INFO: Biodistribution of 177Lu-labeled αMSH analogues in mice bearing B16F10 mouse melanoma
Format: in vivo, C57BL/6J mice
CONDITION_DETAILS: mouse, liver, iv, total radioactivity; 4 h p.i., C57BL/6J mice, B16F10 melanoma; read-out: Biodistribution, Liver
Description: The B16-F10 mouse melanoma cells were cultured and inoculated in mice as described in Example 1. For biodistribution studies, approximately 1-2 MBq of ^177Lu-labeled αMSH analogues via tail vein under anesthesia. At 1, 4, 24, and 120 h p.i., the mice were euthanized by CO2 inhalation. Organs/tissues were harvested and the radioactivity was measured as described in Example 1.
Entries and their tissue uptake at 4 h
Report the figure in %ID/g without appending any unit label.

# COMPOUND, OBSERVATION_TYPE, READOUT_UNIT, QUANTITATIVE_RESULT
rows = [
    ("CCCC[C@H](NC(=O)CN1CCC(NC(=O)CN2CCN(CC(=O)O)CCN(CC(=O)O)CCN(CC(=O)O)CC2)CC1)C(=O)N[C@H]1CC(=O)NCCCC[C@@H](C(N)=O)N(C)C(=O)[C@H](Cc2c[nH]c3ccccc23)NC(=O)[C@H](CCCNC(=N)N)N(C)C(=O)[C@@H](Cc2ccccc2)NC(=O)[C@H](Cc2c[nH]cn2)NC1=O [^177Lu-labeled CCZ01106, metal not drawn]", "tissue uptake at 4 h", "%ID/g", 0.81),
    ("CCCC[C@H](NC(=O)CN1CCC(NC(=O)CN2CCN(CC(=O)O)CCN(CC(=O)O)CCN(CC(=O)O)CC2)CC1)C(=O)N[C@H]1CC(=O)NCCCC[C@@H](C(N)=O)N(C)C(=O)[C@H](Cc2c[nH]c3ccccc23)N(C)C(=O)[C@H](CCCNC(=N)N)N(C)C(=O)[C@@H](Cc2ccccc2)NC(=O)[C@H](Cc2c[nH]cn2)N(C)C1=O [^177Lu-labeled CCZ01099, metal not drawn]", "tissue uptake at 4 h", "%ID/g", 0.34),
]

Next:
What value of measured tissue uptake at 4 h is listed for CCCC[C@H](NC(=O)CN1CCC(NC(=O)[C@H](CCCCNC(=O)CN2CCN(CC(=O)O)CCN(CC(=O)O)CCN(CC(=O)O)CC2)NC(=O)[C@H](CCC(=O)O)NC(=O)CCCc2ccc(I)cc2)CC1)C(=O)N[C@H]1CC(=O)NCCCC[C@@H](C(N)=O)NC(=O)[C@H](Cc2c[nH]c3ccccc23)NC(=O)[C@H](CCCNC(=N)N)NC(=O)[C@@H](Cc2ccccc2)NC(=O)[C@H](Cc2c[nH]cn2)NC1=O [^177Lu-labeled CCZ01082, metal not drawn] ?
3.83
